Biological target: UniProt:P80457
property_measured: IC50

N#Cc1cc(-n2cc(C(=O)O)cn2)ncc1-c1cccc(Cl)c1 5 to 10 nM
N#Cc1cc(-n2cc(C(=O)O)cn2)cnc1-c1cccc(F)c1F ≥ 10 nM
Cc1ccc(F)c(-c2cnc(-n3cc(C(=O)O)c(N)n3)cc2C#N)c1 1 to 5 nM
CCCOc1cccc(-c2cnc(-n3cc(C(=O)O)cn3)cc2C#N)c1 1 to 5 nM
N#Cc1cc(-n2cc(C(=O)O)cn2)ncc1-c1ccoc1 5 to 10 nM
Cc1ccc(-c2cnc(-n3cc(C(=O)O)c(N)n3)cc2C#N)c(F)c1 1 to 5 nM
Cc1cccc(-c2cnc(-n3cc(C(=O)O)cn3)cc2C#N)c1 1 to 5 nM
COc1ccc(F)c(-c2cnc(-n3cc(C(=O)O)c(N)n3)cc2C#N)c1 1 to 5 nM

Okay, now this compound:
Could you tell me which IC50 is on file for `Cc1cc(-c2ccc(-n3cc(C(=O)O)cn3)nc2C#N)ccc1F` ?
≥ 10 nM

====

pIC50 listing for selected compounds.
Target: oxidase type xanthine oxidase (derived from buttermilk) (Bos taurus)
pIC50: −log10 of the molar value.

Worked cases, pIC50 given:
N#Cc1cc(-n2cc(C(=O)O)cn2)ncc1-c1ccccc1Cl 8.30 to 9.00
Cc1ccc(-c2cnc(-n3cc(C(=O)O)cn3)cc2C#N)cc1F 8.30 to 9.00
CC(C)(C)c1ccc(-c2cnc(-n3cc(C(=O)O)cn3)cc2C#N)cc1 8.30 to 9.00

Could you tell me which pIC50 is on file for `CC(C)c1cccc(-c2cnc(-n3cc(C(=O)O)cn3)cc2C#N)c1` ?
8.30 to 9.00

Entry to check: `N#Cc1cc(-n2cc(C(=O)O)cn2)ncc1-c1ccc(O)cc1`
8.30 to 9.00

Entry to check: `CCOc1cccc(F)c1-c1cnc(-n2cc(C(=O)O)cn2)cc1C#N`
8.00 to 8.30

Entry to check: `CCOc1cccc(-c2ccc(-n3cc(C(=O)O)cn3)nc2C#N)c1`
≤ 8.00

Entry to check: `N#Cc1cc(-n2cc(C(=O)O)cn2)ncc1-c1ccsc1`
8.30 to 9.00

Entry to check: `N#Cc1cc(-n2cc(C(=O)O)cn2)ncc1-c1cccc(C(F)(F)F)c1`
8.00 to 8.30

Entry to check: `N#Cc1cc(-n2cc(C(=O)O)cn2)ncc1-c1cccc(F)c1`
8.00 to 8.30

Entry to check: `Cc1cccc(-c2ccc(-n3cc(C(=O)O)cn3)nc2C#N)c1`
≤ 8.00

Entry to check: `N#Cc1cc(-n2cc(C(=O)O)c(N)n2)ncc1-c1ccc(F)cc1F`
8.30 to 9.00

Entry to check: `COc1cccc(-c2cnc(-n3cc(C(=O)O)c(N)n3)cc2C#N)c1`
8.30 to 9.00

Entry to check: `N#Cc1cc(-n2cc(C(=O)O)cn2)cnc1-c1ccccc1F`
≤ 8.00

Entry to check: `N#Cc1cc(-n2cc(C(=O)O)cn2)ncc1-c1ccc(F)c(Cl)c1`
8.00 to 8.30

Entry to check: `CN(C)c1ccc(-c2cnc(-n3cc(C(=O)O)cn3)cc2C#N)cn1`
8.30 to 9.00

Entry to check: `N#Cc1cc(-n2cc(C(=O)O)cn2)ncc1-c1ccc(F)cc1F`
8.30 to 9.00

Entry to check: `N#Cc1cc(-n2cc(C(=O)O)cn2)cnc1-c1ccccc1`
≤ 8.00

Entry to check: `N#Cc1cc(-n2cc(C(=O)O)cn2)ncc1-c1cccc(F)c1F`
8.30 to 9.00

====

IC50 listing for selected molecules.
Target: oxidase type xanthine oxidase (derived from buttermilk) (Bos taurus)

N#Cc1cc(-n2cc(C(=O)O)cn2)cnc1-c1cc(F)ccc1F ≥ 10 nM
N#Cc1cc(-n2cc(C(=O)O)cn2)ncc1-c1ccc(F)cc1 1 to 5 nM
Cc1cccc(-c2cnc(-n3cc(C(=O)O)c(N)n3)cc2C#N)c1 1 to 5 nM

Could you tell me which IC50 is on file for `COc1ccncc1-c1cnc(-n2cc(C(=O)O)cn2)cc1C#N` ?
≥ 10 nM

Entry to check: `CC(C)COc1cccc(-c2cnc(-n3cc(C(=O)O)cn3)cc2C#N)c1`
5 to 10 nM

Entry to check: `COc1cccc(-c2cnc(-n3cc(C(=O)O)cn3)cc2C#N)c1F`
1 to 5 nM

Entry to check: `Cc1cccc(-c2cnc(-n3cc(C(=O)O)cn3)cc2C#N)c1C`
1 to 5 nM

Entry to check: `N#Cc1nc(-n2cc(C(=O)O)cn2)ccc1-c1ccc(F)cc1`
≥ 10 nM

Entry to check: `CS(=O)(=O)Nc1ccc(-c2cnc(-n3cc(C(=O)O)cn3)cc2C#N)cc1`
1 to 5 nM

====

Biological target: oxidase type xanthine oxidase (derived from buttermilk) (Bos taurus, UniProt P80457)
Sequence (P80457 whole entry): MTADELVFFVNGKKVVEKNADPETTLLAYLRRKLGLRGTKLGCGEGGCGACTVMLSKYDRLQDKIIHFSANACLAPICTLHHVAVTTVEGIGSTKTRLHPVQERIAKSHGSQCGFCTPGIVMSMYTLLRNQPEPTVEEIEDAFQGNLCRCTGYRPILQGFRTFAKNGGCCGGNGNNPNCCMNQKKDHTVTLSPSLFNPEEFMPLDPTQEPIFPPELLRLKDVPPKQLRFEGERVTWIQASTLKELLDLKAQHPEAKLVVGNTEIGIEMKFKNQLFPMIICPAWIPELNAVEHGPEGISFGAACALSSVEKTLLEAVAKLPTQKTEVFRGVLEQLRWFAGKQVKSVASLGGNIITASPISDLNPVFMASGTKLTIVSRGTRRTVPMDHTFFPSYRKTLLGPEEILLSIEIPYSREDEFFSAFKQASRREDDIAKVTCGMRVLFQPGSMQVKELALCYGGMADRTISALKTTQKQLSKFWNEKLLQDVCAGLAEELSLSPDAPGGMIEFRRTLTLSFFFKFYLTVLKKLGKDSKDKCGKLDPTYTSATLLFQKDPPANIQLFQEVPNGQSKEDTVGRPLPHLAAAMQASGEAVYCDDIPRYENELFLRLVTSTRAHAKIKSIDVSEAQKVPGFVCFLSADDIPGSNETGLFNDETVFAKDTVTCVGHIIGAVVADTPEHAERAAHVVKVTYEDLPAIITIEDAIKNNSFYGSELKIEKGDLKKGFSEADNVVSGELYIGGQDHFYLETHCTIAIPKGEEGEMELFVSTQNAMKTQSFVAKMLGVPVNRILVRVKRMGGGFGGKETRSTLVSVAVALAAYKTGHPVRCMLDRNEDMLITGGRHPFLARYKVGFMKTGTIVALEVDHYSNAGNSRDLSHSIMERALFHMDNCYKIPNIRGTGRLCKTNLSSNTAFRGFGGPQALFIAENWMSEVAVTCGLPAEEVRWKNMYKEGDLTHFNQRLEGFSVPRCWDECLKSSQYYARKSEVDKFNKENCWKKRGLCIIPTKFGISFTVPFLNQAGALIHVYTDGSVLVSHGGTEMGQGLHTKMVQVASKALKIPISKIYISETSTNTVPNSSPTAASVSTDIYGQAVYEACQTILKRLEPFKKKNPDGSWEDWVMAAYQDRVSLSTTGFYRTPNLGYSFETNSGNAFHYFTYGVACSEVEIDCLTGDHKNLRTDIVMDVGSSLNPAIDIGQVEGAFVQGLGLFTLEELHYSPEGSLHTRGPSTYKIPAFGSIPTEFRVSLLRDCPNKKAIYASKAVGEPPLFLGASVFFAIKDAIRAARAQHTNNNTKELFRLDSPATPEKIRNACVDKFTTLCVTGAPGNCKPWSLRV
IC50 listing for selected molecules.

Worked cases, IC50 given:
molecule	target_entity	property_measured	result
N#Cc1cc(-n2cc(C(=O)O)cn2)ncc1-c1cncc(F)c1 [Compound 60]	oxidase type xanthine oxidase (derived from buttermilk) (Bos taurus, UniProt P80457)	IC50	≥ 10 nM
COc1ccc(F)c(-c2ccc(-n3cc(C(=O)O)cn3)nc2C#N)c1 [Compound 91]	oxidase type xanthine oxidase (derived from buttermilk) (Bos taurus, UniProt P80457)	IC50	5 to 10 nM

Okay, now this molecule:
Could you tell me which IC50 is on file for N#Cc1cc(-n2cc(C(=O)O)cn2)ncc1-c1csc2ccccc12 [Compound 61] ?
1 to 5 nM
